Ref: paper PMC10397247

- system-name: T1, P2-AA-12HAA-E
- T1 chain: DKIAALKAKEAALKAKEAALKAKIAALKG
- method-summary: two-hybrid library CCmax;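 also: natural log of median RNA to DNA barcode read ratio; higher means stronger binding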
- assay-setup: mean of both orientations
measured-parameter: interaction score

// worked examples, interaction score included
{"binder": "DEIAALEAEHAALEAEHAALEAEIAALEG [P1-AA-12HAA-H]", "measured-parameter": "interaction score", "recorded-measurement": 0.0438}
{"binder": "DEIAALEAEEAALEAEEAALEAEIAALEG [P1-AA-12HAA-E]", "measured-parameter": "interaction score", "recorded-measurement": -0.819}
{"binder": "DEIAALEAENAALEAENAALEAEIAALEG [P1-AA]", "measured-parameter": "interaction score", "recorded-measurement": -0.168}
{"binder": "DEIAALEAELAALEAELAALEAEIAALEG [P1-AA-12HAA-L]", "measured-parameter": "interaction score", "recorded-measurement": 1.74}

(a) DEIAALEAERAALEAERAALEAEIAALEG [P1-AA-12HAA-R]
(b) DEIAALEAEIAALEAEIAALEAEIAALEG [P1-AA-12HAA-I]
(c) DEIAALEAEDAALEAEDAALEAEIAALEG [P1-AA-12HAA-D]
Task: # desc sort on interaction score across 3 binders Reply: labels, ordered per the request.
Result: b, a, c
